target: NA-uptake (Rattus norvegicus); assay: biochemical; details: read-out: NA-uptake [10 μM], % inhibition
Assignment: determine reported inhibition at 10 µM for the given compounds.
One number for each entry, in %.

# count of solved cases: 5
Input: Data request, read-out inhibition at 10 µM, for CN(C)C1(Cc2cccc(Cl)c2)CCC(NC(=O)CCC(=O)N2CC=CCC2)CC1 (stereo not shown) [Example 39]
Output: 90

Input: So what does the record say about inhibition at 10 µM for CN(C)C1(Cc2cccc(Cl)c2)CCC(NC(=O)CCC(=O)NC2CCOC2=O)CC1 (stereo not shown) [Example 2] ?
Output: 87

Input: Consider the compound CN(C)C1(Cc2ccc(Cl)cc2)CCC(NC(=O)CCC(=O)NCc2cccc(Br)c2)CC1 (stereo not shown) [Example 165] and give its measured inhibition at 10 µM.
Output: 94

Input: What measured inhibition at 10 µM goes with C=CCN(C)C(=O)CCC(=O)NC1CCC(Cc2cccc(Cl)c2)(N(C)C)CC1 (stereo not shown) [Example 43] ?
Output: 96

Input: If you can, please state the reported inhibition at 10 µM value of COc1ccc(CNC(=O)CCC(=O)NC2CCC(Cc3cccc(C)c3)(N(C)C)CC2)cc1 (stereo not shown) [Example 85] .
Output: 100

Value sought for every listed compound: inhibition at 10 µM.
1. Cc1ccc(CC2(N(C)C)CCC(NC(=O)CCC(=O)N3CC=C(c4ccccc4)CC3)CC2)cc1 (stereo not shown) [Example 87]
2. CN(C)C1(Cc2ccc(Cl)cc2)CCC(NC(=O)CCC(=O)N2CC=CCC2)CC1 (stereo not shown) [Example 5]
3. COc1ccc(NC(=O)CCC(=O)NC2CCC(Cc3cccc(C)c3)(N(C)C)CC2)cc1 (stereo not shown) [Example 75]
4. CN(C)C1(Cc2ccc(Cl)cc2)CCC(NC(=O)CCC(=O)N2CCC3(CC2)OCCO3)CC1 (stereo not shown) [Example 65]
5. CN(C)C1(Cc2cccc(Cl)c2)CCC(NC(=O)CCC(=O)NCc2ccccn2)CC1 (stereo not shown) [Example 73]
6. CN(C)C1(Cc2cccc(Cl)c2)CCC(NC(=O)CCC(=O)NCC2CCCO2)CC1 (stereo not shown) [Example 29]

Output:
1: 94; 2: 80; 3: 99; 4: 84; 5: 87; 6: 91

Batch of 2 compounds: report inhibition at 10 µM for each.
1. Cc1ccc(CC2(N(C)C)CCC(NC(=O)CCC(=O)N(C)CCc3ccccn3)CC2)cc1 (stereo not shown) [Example 38]
2. Cc1ccc(CC2(N(C)C)CCC(NC(=O)CCC(=O)N3CCN(c4cccc(C)c4C)CC3)CC2)cc1 (stereo not shown) [Example 58]

Output:
1. 79
2. 79

Would you mind listing inhibition at 10 µM for each of the following compounds?
1. Cc1ccc(CC2(N(C)C)CCC(NC(=O)CCC(=O)NC3CCN(Cc4c(Cl)cccc4Cl)C3)CC2)cc1 (stereo not shown) [Example 1]
2. CCOP(=O)(Cc1ccc(NC(=O)CCC(=O)NC2CCC(Cc3cccc(C)c3)(N(C)C)CC2)cc1)OCC (stereo not shown) [Example 46]

Output:
71
89

Input: Could you share which inhibition at 10 µM value was measured for CC1CN(C(=O)CCC(=O)NC2CCC(Cc3ccc(Cl)cc3)(N(C)C)CC2)CC(C)O1 (stereo not shown) [Example 86] ?
Output: 76

----------
Give inhibition at 10 µM for every item shown.
target: 5HT-uptake (Rattus norvegicus, UniProt P31652); construct: synaptosomes were freshly isolated from areas of rats' brains; assay: biochemical; conditions: read-out: 5HT-uptake [10 μM], % inhibition
Sequence (P31652 whole entry): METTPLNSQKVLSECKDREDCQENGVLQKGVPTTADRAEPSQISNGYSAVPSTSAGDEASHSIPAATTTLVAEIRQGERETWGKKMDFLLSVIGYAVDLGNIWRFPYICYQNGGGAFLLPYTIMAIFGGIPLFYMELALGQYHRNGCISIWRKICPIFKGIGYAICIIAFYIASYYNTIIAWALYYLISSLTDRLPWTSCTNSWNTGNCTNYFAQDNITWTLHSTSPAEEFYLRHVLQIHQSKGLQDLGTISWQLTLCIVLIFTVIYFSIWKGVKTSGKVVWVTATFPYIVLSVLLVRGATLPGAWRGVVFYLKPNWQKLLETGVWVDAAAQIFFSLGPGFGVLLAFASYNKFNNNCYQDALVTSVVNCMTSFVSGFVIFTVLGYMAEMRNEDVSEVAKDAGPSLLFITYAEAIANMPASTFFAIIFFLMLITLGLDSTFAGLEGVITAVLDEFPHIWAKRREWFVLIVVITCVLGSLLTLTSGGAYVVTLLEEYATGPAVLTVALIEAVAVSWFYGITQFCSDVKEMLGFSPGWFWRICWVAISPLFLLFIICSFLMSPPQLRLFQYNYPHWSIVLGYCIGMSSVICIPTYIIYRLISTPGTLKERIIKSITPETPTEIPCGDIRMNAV
Answers are plain numbers, in %.

Known inhibition at 10 µM results, listed for orientation:
Input: Which measured inhibition at 10 µM value corresponds to C=CCN(C)C(=O)CCC(=O)NC1CCC(Cc2ccc(Cl)cc2)(N(C)C)CC1 (stereo not shown) ?
Output: 93

Input: What value of inhibition at 10 µM has been recorded for this entry: CN(C)C1(Cc2ccc(Cl)cc2)CCC(NC(=O)CCC(=O)NCc2cccc(Br)c2)CC1 (stereo not shown)
Output: 92

Input: # get_value(readout='inhibition at 10 µM', item= Cc1cccc(CC2(N(C)C)CCC(NC(=O)CCC(=O)N(C)CCc3c[nH]c4ccccc34)CC2)c1 (stereo not shown) )
Output: 96

Input: # inhibition at 10 µM lookup, item Cc1cccc(CC2(N(C)C)CCC(NC(=O)CCC(=O)N3CCC(C)CC3)CC2)c1 (stereo not shown)
Output: 92

Input: Give its inhibition at 10 µM value. Item: C=CCN(C)C(=O)CCC(=O)NC1CCC(Cc2cccc(Cl)c2)(N(C)C)CC1 (stereo not shown)
Output: 98

# per-item lookup of inhibition at 10 µM; items listed below
1. COc1ccc(CN2CCN(C(=O)CCC(=O)NC3CCC(Cc4cccc(C)c4)(N(C)C)CC3)CC2)cc1F (stereo not shown)
2. COc1ccc(OC)c(CN2CCN(C(=O)CCCC(=O)NC3CCC(Cc4ccccc4)(N(C)C)CC3)CC2)c1 (stereo not shown)
3. CN(CCc1c[nH]c2ccccc12)C(=O)CCC(=O)NC1CCC(Cc2cccc(Cl)c2)(N(C)C)CC1 (stereo not shown)
4. COc1cccc(N2CCN(C(=O)CCCC(=O)NC3CCC(Cc4ccccc4)(N(C)C)CC3)CC2)c1 (stereo not shown)
5. CN(C)C1(Cc2cccc(Cl)c2)CCC(NC(=O)CCC(=O)NCc2cc(Cl)ccc2Cl)CC1 (stereo not shown)

Output:
1. 94
2. 94
3. 93
4. 92
5. 93

----------
target: 5HT-uptake (Rattus norvegicus, UniProt P31652); construct: synaptosomes were freshly isolated from areas of rats' brains; assay: biochemical; settings: read-out: 5HT-uptake [10 μM], % inhibition
Readout kind: inhibition at 10 µM

Input: Suppose we examine the compound CN(C)C1(Cc2ccc(Cl)cc2)CCC(NC(=O)CCC(=O)N2CCN(C(=O)c3cccc(Cl)c3)CC2)CC1 (stereo not drawn) ; what inhibition at 10 µM value has been reported?
Output: 92%

Input: Could you share which inhibition at 10 µM value was measured for COc1ccc(N2CCN(C(=O)CCC(=O)NC3CCC(Cc4ccc(C)cc4)(N(C)C)CC3)CC2)cc1 (stereo not drawn) ?
Output: 96%

Input: Look at this compound and give its reported inhibition at 10 µM. CCOP(=O)(Cc1ccc(NC(=O)CCC(=O)NC2CCC(Cc3ccc(Cl)cc3)(N(C)C)CC2)cc1)OCC (stereo not drawn)
Output: 92%

Input: Given the entry Cc1ccc(CC2(N(C)C)CCC(NC(=O)CCC(=O)N3CCN(c4ccccn4)CC3)CC2)cc1 (stereo not drawn) , report its measured inhibition at 10 µM.
Output: 95%

Input: Item under review: CN(C)C1(Cc2ccc(Cl)cc2)CCC(NC(=O)CCC(=O)N2CC=C(c3ccc(F)cc3)CC2)CC1 (stereo not drawn) . Reported inhibition at 10 µM?
Output: 93%

Consider the following items and state reported inhibition at 10 µM for each.
1. COc1ccc(CNC(=O)CCC(=O)NC2CCC(Cc3ccc(Cl)cc3)(N(C)C)CC2)c(OC)c1 (stereo not drawn)
2. CC1CCN(C(=O)CCC(=O)NC2CCC(Cc3ccc(Cl)cc3)(N(C)C)CC2)CC1 (stereo not drawn)

Output:
1. 98%
2. 93%

----------
target: NA-uptake (Rattus norvegicus, UniProt Q63380); test: biochemical; details: read-out: NA-uptake [10 μM], % inhibition
Sequence (Q63380 1-617): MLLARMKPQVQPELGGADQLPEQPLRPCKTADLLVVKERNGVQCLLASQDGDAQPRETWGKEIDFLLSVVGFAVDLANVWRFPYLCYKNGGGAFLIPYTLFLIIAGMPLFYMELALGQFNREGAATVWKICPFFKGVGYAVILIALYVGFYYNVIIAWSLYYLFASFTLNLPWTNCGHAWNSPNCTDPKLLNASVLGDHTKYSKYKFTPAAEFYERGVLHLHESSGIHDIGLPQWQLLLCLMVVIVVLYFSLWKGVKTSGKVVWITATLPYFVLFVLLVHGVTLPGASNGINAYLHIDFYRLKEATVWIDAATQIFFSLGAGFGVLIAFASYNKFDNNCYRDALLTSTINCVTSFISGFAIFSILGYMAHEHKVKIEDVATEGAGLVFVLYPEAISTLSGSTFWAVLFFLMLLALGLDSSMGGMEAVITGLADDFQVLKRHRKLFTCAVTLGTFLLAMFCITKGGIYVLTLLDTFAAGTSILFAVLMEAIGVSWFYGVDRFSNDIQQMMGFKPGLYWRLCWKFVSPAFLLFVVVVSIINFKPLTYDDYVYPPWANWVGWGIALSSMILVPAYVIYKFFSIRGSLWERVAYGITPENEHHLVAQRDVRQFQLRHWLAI
Quick rule: inhibition at 10 µM of at least 90% means Y, below that means N.

Input: Is reported inhibition at 10 µM greater than or equal to 90% here: COCCCNC(=O)CCC(=O)NC1CCC(Cc2ccc(Cl)cc2)(N(C)C)CC1 (stereo not shown) [Example 26]
Output: N

Input: Given Cc1ccc(CC2(N(C)C)CCC(NC(=O)CCC(=O)N3CCN(c4ccc(Cl)cc4)CC3)CC2)cc1 (stereo not shown) [Example 96] , state whether its inhibition at 10 µM is at least 90%.
Output: N

Input: For this compound, is measured inhibition at 10 µM 90% or higher? CN(C)C1(Cc2ccc(Cl)cc2)CCC(NC(=O)CCC(=O)NCCc2cccc(F)c2)CC1 (stereo not shown) [Example 88]
Output: Y

Input: API: above_or_equal(metric=inhibition at 10 µM, cutoff=90%) for item C=CCN(C)C(=O)CCC(=O)NC1CCC(Cc2ccc(Cl)cc2)(N(C)C)CC1 (stereo not shown) [Example 17]
Output: N

Input: Determine whether measured inhibition at 10 µM meets or exceeds 90% for Cc1ccc(CC2(N(C)C)CCC(NC(=O)CCC(=O)N3CCN(C(=O)c4cnc(C)cn4)CC3)CC2)cc1 (stereo not shown) [Example 10]
Output: N

Further cases:
Input: Form field: inhibition at 10 µM at least 90%? Entry: COC(=O)C(Cc1ccc(Cl)cc1)NC(=O)CCC(=O)NC1CCC(Cc2ccc(C)cc2)(N(C)C)CC1 (stereo not shown) [Example 32]
Output: Y

Input: Please check the record Cc1cnc(C(=O)N2CCN(C(=O)CCC(=O)NC3CCC(Cc4ccc(Cl)cc4)(N(C)C)CC3)CC2)cn1 (stereo not shown) [Example 14] and state if its inhibition at 10 µM is at or above 90%.
Output: N

Input: Item COc1cccc(N2CCN(C(=O)CCC(=O)NC3CCC(Cc4cccc(C)c4)(N(C)C)CC3)CC2)c1 (stereo not shown) [Example 48] with inhibition at 10 µM of 90% or above?
Output: Y

Hello, the source for this data is patent US8088763B2, in case you need it.
